Notes on pIC50 obtained with Epidermal growth factor receptor (Homo sapiens).
Sequence (P00533 whole entry): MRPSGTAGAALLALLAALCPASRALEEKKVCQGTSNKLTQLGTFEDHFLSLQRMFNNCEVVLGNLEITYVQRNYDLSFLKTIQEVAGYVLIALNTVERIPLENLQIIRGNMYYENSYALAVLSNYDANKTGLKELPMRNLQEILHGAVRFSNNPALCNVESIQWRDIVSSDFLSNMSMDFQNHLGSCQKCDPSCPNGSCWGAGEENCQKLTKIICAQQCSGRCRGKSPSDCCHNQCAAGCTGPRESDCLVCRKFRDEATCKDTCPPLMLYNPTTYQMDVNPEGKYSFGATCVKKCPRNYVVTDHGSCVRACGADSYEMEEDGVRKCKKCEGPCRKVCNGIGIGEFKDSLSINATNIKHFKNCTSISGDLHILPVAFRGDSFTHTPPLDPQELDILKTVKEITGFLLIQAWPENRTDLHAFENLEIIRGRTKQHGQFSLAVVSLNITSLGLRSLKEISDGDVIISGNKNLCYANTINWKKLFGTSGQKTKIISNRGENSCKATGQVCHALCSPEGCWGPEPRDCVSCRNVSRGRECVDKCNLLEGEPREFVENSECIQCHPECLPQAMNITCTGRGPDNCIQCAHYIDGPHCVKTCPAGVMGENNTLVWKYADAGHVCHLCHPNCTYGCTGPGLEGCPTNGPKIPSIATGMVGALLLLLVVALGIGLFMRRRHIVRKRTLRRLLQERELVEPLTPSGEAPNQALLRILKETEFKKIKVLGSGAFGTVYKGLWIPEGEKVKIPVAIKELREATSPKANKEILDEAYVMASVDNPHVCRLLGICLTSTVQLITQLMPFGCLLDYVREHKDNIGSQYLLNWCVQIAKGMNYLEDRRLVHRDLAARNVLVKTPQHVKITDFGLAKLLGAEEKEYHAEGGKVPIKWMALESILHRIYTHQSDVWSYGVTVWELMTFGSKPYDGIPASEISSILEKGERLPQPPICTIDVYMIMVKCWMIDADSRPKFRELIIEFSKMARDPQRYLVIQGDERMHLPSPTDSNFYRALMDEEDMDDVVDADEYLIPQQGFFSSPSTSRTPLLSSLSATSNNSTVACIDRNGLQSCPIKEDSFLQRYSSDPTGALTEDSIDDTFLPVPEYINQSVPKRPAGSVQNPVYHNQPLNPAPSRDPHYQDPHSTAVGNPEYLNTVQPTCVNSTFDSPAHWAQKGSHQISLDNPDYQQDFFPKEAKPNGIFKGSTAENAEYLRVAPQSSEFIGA
On this scale, pIC50 is minus log10 of a concentration expressed in M (mol/L).

-- ask Which measured pIC50 value corresponds to COC1CCN(CCOc2n[nH]c3ncnc(Nc4ccc(OCc5ccccn5)c(Cl)c4)c23)CC1 ?
-- reply 7.55

-- ask Continue with Clc1cc(Nc2ncnc3[nH]nc(OCCN4CCOCC4)c23)ccc1OCc1ccccn1
-- reply 9.00

-- ask Continue with Cc1ccc(Oc2ccc(Nc3ncnc4[nH]nc(OCCN5CCC(O)CC5)c34)cc2F)cn1
-- reply 5.84

-- ask Continue with CC(=O)N1CCN(CCOc2n[nH]c3ncnc(Nc4ccc(OCc5ccccn5)c(Cl)c4)c23)CC1
-- reply 8.52

-- ask Continue with CN1CCN(CCOc2n[nH]c3ncnc(Nc4ccc(OCc5ccccn5)c(Cl)c4)c23)CC1
-- reply 8.30

-- ask Continue with COc1cc(Nc2ncnc3[nH]nc(OCCN4CCC(O)CC4)c23)ccc1OCc1cccc(F)c1
-- reply 7.89

-- ask Continue with CNCCOc1n[nH]c2ncnc(Nc3ccc(OCc4ccccn4)c(Cl)c3)c12
-- reply 7.77

----------
assay: Volume of distribution at steady state in male and female Beagle dog at 0.2 mg/kg, iv and 0.4 mg/kg, po; format: ADME, organism-based, Canis lupus familiaris; details: both, in vivo, read-out: Vdss
ENDPOINT: Vd

-- ask Which measured Vd value corresponds to CN1CCN(CCOc2n[nH]c3ncnc(Nc4ccc(OCc5ccccn5)c(Cl)c4)c23)CC1 ?
-- reply 9 L/kg

----------
Would you kindly list log10(IC50) for each of these compounds?
target: Receptor tyrosine-protein kinase erbB-2 (Homo sapiens, UniProt P04626); experiment: Inhibition of erbB2
Sequence (P04626 whole entry): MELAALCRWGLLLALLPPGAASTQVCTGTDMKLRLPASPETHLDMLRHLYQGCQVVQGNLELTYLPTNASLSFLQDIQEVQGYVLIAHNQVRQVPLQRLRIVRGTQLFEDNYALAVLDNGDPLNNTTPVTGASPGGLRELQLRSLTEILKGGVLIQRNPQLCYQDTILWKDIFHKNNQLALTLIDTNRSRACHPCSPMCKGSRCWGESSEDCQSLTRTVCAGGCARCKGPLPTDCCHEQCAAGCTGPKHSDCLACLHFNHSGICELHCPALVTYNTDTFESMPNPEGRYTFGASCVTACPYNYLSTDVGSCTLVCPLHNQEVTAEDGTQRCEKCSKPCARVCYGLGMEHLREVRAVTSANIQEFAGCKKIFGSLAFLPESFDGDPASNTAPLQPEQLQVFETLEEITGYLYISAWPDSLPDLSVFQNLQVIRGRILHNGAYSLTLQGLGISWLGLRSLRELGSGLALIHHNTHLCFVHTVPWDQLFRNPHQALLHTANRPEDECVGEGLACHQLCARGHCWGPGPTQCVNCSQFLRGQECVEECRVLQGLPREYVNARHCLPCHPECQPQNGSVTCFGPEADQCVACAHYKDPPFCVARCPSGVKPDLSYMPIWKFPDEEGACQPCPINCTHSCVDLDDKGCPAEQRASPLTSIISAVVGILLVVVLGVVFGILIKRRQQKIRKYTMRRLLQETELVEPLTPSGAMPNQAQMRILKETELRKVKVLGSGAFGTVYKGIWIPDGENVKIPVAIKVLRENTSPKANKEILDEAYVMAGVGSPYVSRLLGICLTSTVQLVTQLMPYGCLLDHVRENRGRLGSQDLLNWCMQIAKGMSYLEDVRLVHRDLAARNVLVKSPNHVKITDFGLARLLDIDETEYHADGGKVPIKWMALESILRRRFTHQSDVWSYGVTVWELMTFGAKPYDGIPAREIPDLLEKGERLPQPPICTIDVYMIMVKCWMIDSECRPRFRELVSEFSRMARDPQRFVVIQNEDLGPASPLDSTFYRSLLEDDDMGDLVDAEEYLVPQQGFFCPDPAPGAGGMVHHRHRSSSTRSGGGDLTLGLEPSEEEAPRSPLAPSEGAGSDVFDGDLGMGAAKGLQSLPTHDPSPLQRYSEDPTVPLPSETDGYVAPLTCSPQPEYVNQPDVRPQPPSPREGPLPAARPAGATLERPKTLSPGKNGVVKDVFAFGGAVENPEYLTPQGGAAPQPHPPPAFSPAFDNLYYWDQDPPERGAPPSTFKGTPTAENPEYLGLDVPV
Log10 applied to IC50; unit prior to transform: nM.

-- ask Which measured log10(IC50) value corresponds to Cc1cc(Nc2ncnc3[nH]nc(OCCN4CCC(O)CC4)c23)ccc1OCc1ccccn1 ?
-- reply 0.70

-- ask Continue with CNCCOc1n[nH]c2ncnc(Nc3ccc(OCc4ccccn4)c(Cl)c3)c12
-- reply 0.48

-- ask Continue with CN1CCN(CCOc2n[nH]c3ncnc(Nc4ccc(OCc5ccccn5)c(Cl)c4)c23)CC1
-- reply 0.00

-- ask Continue with CN1CCN(CCCOc2n[nH]c3ncnc(Nc4ccc(OCc5ccccn5)c(Cl)c4)c23)CC1
-- reply 0.60

-- ask Continue with COc1cc(Nc2ncnc3[nH]nc(OCCN4CCC(O)CC4)c23)ccc1OCc1ccccn1
-- reply 1.23

-- ask Continue with OCCOc1n[nH]c2ncnc(Nc3ccc(OCc4ccccn4)c(Cl)c3)c12
-- reply 0.60

-- ask Continue with Clc1cc(Nc2ncnc3[nH]nc(OCCN4CCNCC4)c23)ccc1OCc1ccccn1
-- reply 0.48

-- ask Continue with COc1cc(Nc2ncnc3[nH]nc(OCCN4CCC(O)CC4)c23)ccc1OCc1cccc(F)c1
-- reply 0.48

-- ask Continue with OC1CCN(CCCOc2n[nH]c3ncnc(Nc4ccc(OCc5ccccn5)c(Cl)c4)c23)CC1
-- reply 0.78

----------
experiment: Half life in rat at 0.4 mg/kg, iv and 1 mg/kg, po; type: ADME, organism-based; details: in vivo
ENDPOINT: half-life (h)
I only need the number, in h, no unit after it.

-- ask Which measured half-life value corresponds to CN1CCN(CCOc2n[nH]c3ncnc(Nc4ccc(OCc5ccccn5)c(Cl)c4)c23)CC1 ?
-- reply 1.4
